Tested on: cancer cell lines from the cancer cell line encyclopedia (CCLE)
Test: Cell line profiling (CLiP) proliferation experiment
Format: cell-based
Details: Homo sapiens, K562, K-562; read-out: Inflection Point
MEASURE NAME: EC50

Look up EC50 of "CC(C)[C@@]12C[C@@H](O)[C@@](C)(O1)[C@@H]1CC[C@@H](C)[C@H]1[C@@H]2OC(=O)/C=C/c1ccccc1" and report it.
9.57 µM

---

Test system: cancer cell lines from the cancer cell line encyclopedia (CCLE)
Assay: Cell line profiling (CLiP) proliferation experiment
Assay type: cell-based
Details: TE 617.T (soft_tissue, NS); read-out: Crossing Point
MEASURE NAME: IC50 (µM)
Report the value in µM with no unit label.

Supply IC50 value. Item: "CC(C)[C@@]12C[C@@H](O)[C@@](C)(O1)[C@@H]1CC[C@@H](C)[C@H]1[C@@H]2OC(=O)/C=C/c1ccccc1"
16.5
